# TARGET_OF_ASSAY: MMP-3 (Homo sapiens, UniProt P08254)
# Construct: Truncated Prostromelysin-257 was expressed in a soluble form in E.coli; made in house; host or cells: E. coli
# Sequence (P08254 100-274 limits assumed): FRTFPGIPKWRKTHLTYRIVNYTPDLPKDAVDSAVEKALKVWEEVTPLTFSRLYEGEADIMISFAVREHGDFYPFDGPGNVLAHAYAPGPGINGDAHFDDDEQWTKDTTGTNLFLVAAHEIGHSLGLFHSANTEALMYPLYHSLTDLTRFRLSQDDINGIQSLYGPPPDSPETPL
# EXPERIMENT_NOTES: Primary Thiopeptilide MMP-3 Inhibition Assay
# Assay type: biochemical
# EXPERIMENTAL_SETUP: at 5 μM; read-out: MMP-3 Thiopep. % inhibition
Structures can show the parent of a compound that is named as a salt.
READOUT_LABEL: inhibition at 5 µM (%)

a = O=C(CC(CCCc1ccccc1)C(=O)O)c1ccc(-c2ccc(-c3nnn[nH]3)cc2)cc1 (stereo not drawn)
b = CN(C)CCC(CC(=O)c1ccc(-c2ccc(Cl)cc2)cc1)C(=O)O (stereo not drawn) [Example 263, hydrochloride]
c = O=C(O)[C@@H]1CC=CC[C@H]1C(=O)c1ccc(-c2ccc(Cl)cc2)cc1 (relative stereo)
d = CC(C)CC(CC(=O)c1ccc(-c2ccccc2Cl)cc1)C(=O)O (stereo not drawn)
Request: // smallest inhibition at 5 µM at index 0, largest at the end Output the labels ranked as instructed.
Response: d, a, b, c

1 = O=C(c1ccc(-c2ccc(Cl)cc2)cc1)[C@H]1CCCC[C@H]1C(=O)O (relative stereo)
2 = CCCCCCCCCCC(CC(=O)c1ccc(-c2ccc(Cl)cc2)cc1)C(=O)O (stereo not drawn)
Request: Identify the entry with the larger inhibition at 5 µM. Options: 1 and 2 # reply format: chosen label
Response: 2
(2: 43%, 1: 19%)

* * *

# TARGET_OF_ASSAY: MMP-3 (Homo sapiens, UniProt P08254)
# Construct: Truncated Prostromelysin-257 was expressed in a soluble form in E.coli; made in house; host or cells: E. coli
# EXPERIMENT_NOTES: Primary Thiopeptilide MMP-3 Inhibition Assay
# Assay type: biochemical
# EXPERIMENTAL_SETUP: pH 6.5; 13 nM stromelysin; x (n) = average of n determinations; read-out: MMP-3 Thiopep. IC50
pIC50: −log10 of the molar value. Structures can show the parent of a compound that is named as a salt.
READOUT_LABEL: pIC50

Example compounds with recorded pIC50:
>  <COMPOUND>
COc1cccc(CCC(CC(=O)c2ccc(-c3ccc(Cl)cc3)cc2)C(=O)O)c1 (stereo not drawn)

>  <pIC50>
6.82

$$$$
>  <COMPOUND>
CC(C)Oc1ccc(-c2ccc(C(=O)CC(CCCc3ccccc3)C(=O)O)cc2)cc1 (stereo not drawn)

>  <pIC50>
6.76

$$$$
>  <COMPOUND>
CCc1ccc(SCC(CC(=O)c2ccc(-c3ccc(Cl)cc3)cc2)C(=O)O)cc1 (stereo not drawn)

>  <pIC50>
6.19

$$$$
>  <COMPOUND>
O=C(CC(CSc1cccc(Cl)c1)C(=O)O)c1ccc(-c2ccc(Cl)cc2)cc1 (stereo not drawn)

>  <pIC50>
6.31

$$$$
>  <COMPOUND>
O=C(CC(CSc1ccccc1C(=O)O)C(=O)O)c1ccc(-c2ccc(Cl)cc2)cc1 (stereo not drawn)

>  <pIC50>
6.47

$$$$
>  <COMPOUND>
O=C(O)[C@H]1[C@@H](Sc2ccc(F)cc2)CC[C@@H]1C(=O)c1ccc(-c2ccc(Cl)cc2)cc1 (relative stereo)

>  <pIC50>
6.51

$$$$
>  <COMPOUND>
O=C(CC(CSc1ccccc1F)C(=O)O)c1ccc(-c2ccc(Cl)cc2)cc1 (stereo not drawn)

>  <pIC50>
6.77

$$$$
>  <COMPOUND>
N#CCc1ccc(-c2ccc(C(=O)CC(CCCc3ccccc3)C(=O)O)cc2)cc1 (stereo not drawn)

>  <pIC50>
6.20

$$$$
>  <COMPOUND>
CC(C)CC(CC(=O)c1ccc(-c2ccc(C#N)cc2)cc1)C(=O)O (stereo not drawn)

>  <pIC50>
6.15

$$$$
>  <COMPOUND>
CC(C)(C)C(=O)SCC(CC(=O)O)C(=O)c1ccc(-c2ccc(Cl)cc2)cc1 (stereo not drawn)

>  <pIC50>
6.22

$$$$

1 = CC(C)CC(CC(=O)c1ccc(-c2ccc(Cl)cc2)cc1)C(=O)O (stereo not drawn)
2 = O=C(CC(CSc1ccccc1O)C(=O)O)c1ccc(-c2ccc(Cl)cc2)cc1 (stereo not drawn)
3 = O=C(O)CC(CSc1cccs1)C(=O)c1ccc(-c2ccc(Cl)cc2)cc1 (stereo not drawn)
4 = O=C(CC(CSCc1ccccc1)C(=O)O)c1ccc(-c2ccc(Cl)cc2)cc1 (stereo not drawn)
5 = CCN(CC)CCCC(CC(=O)c1ccc(-c2ccc(Cl)cc2)cc1)C(=O)O (stereo not drawn) [Example 265, trifluoroacetate]
Request: Sort ascending by pIC50. Output the labels ranked as instructed.
Response: 5, 3, 1, 4, 2

* * *

# TARGET_OF_ASSAY: MMP-3 (Homo sapiens)
# Construct: Truncated Prostromelysin-257 was expressed in a soluble form in E.coli; made in house; host or cells: E. coli
# EXPERIMENT_NOTES: Primary Thiopeptilide MMP-3 Inhibition Assay
# Type: biochemical
# EXPERIMENTAL_SETUP: pH 6.5; 13 nM stromelysin; x (n) = average of n determinations; read-out: MMP-3 Thiopep. IC50
Where a name gives a salt, the structure may show the parent alone.
READOUT_LABEL: IC50 (nM)

Example compounds with recorded IC50:
>  <COMPOUND>
O=C(CC(CCCc1ccccc1)C(=O)O)c1ccc(-c2ccc(C(F)(F)F)cc2)cc1 (centres unmarked)

>  <IC50 [nM]>
400

$$$$
>  <COMPOUND>
O=C(CCC(CCCc1ccccc1)C(=O)O)c1ccc(-c2ccc(Cl)cc2)cc1 (centres unmarked)

>  <IC50 [nM]>
2400

$$$$
>  <COMPOUND>
O=C(CC(CCCN1C(=O)c2ccccc2C1=O)C(=O)O)c1ccc(-c2ccc(Cl)cc2)cc1 (centres unmarked)

>  <IC50 [nM]>
95

$$$$
>  <COMPOUND>
COC(=O)c1ccccc1SCC(CC(=O)c1ccc(-c2ccc(Cl)cc2)cc1)C(=O)O (centres unmarked)

>  <IC50 [nM]>
79

$$$$
>  <COMPOUND>
O=C(O)CCC(CCCc1ccccc1)C(=O)c1ccc(-c2ccc(Cl)cc2)cc1 (centres unmarked)

>  <IC50 [nM]>
500

$$$$
>  <COMPOUND>
O=C(CC(NC(c1ccccc1)c1ccccc1)C(=O)O)c1ccc(-c2ccc(Cl)cc2)cc1 (centres unmarked) [Example 260, hydrochloride]

>  <IC50 [nM]>
520

$$$$

a = O=C(CC(CSc1cccc(F)c1)C(=O)O)c1ccc(-c2ccc(Cl)cc2)cc1 (centres unmarked)
b = O=C(CC(CSCCc1ccccc1)C(=O)O)c1ccc(-c2ccc(Cl)cc2)cc1 (centres unmarked)
Request: When the recorded IC50 values are compared, which is smaller: that of a or that of b ? # reply format: chosen label
Response: b
(b: 87 nM, a: 360 nM)

* * *

# TARGET_OF_ASSAY: MMP-9 (Homo sapiens, UniProt P14780)
# Construct: from tissue; host or cells: human polymorphonuclear leukocytes (PMN) from whole blood (New York Blood Center), PMA-stimulated supernatant
# Sequence (P14780 107-707 limits assumed): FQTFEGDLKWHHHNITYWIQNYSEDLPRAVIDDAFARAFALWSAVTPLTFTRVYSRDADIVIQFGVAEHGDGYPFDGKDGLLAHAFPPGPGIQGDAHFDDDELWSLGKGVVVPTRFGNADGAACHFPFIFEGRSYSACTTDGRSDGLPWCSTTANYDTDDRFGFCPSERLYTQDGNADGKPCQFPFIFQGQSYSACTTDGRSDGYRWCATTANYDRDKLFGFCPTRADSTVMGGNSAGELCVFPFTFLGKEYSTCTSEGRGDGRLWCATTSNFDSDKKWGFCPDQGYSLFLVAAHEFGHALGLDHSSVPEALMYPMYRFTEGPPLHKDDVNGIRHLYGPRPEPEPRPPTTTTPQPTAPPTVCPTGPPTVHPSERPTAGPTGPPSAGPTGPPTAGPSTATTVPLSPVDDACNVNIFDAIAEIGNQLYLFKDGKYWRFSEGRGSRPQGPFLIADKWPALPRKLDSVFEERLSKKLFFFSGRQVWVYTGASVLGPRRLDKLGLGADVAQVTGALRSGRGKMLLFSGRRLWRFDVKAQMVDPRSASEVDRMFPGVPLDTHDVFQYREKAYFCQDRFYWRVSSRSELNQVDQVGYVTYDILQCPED
# EXPERIMENT_NOTES: Automated MMP Profiling Assay, MMP-9 fluorogenic
# Format: biochemical
# EXPERIMENTAL_SETUP: 96-well automated, P218
Catalogue of IC50 readings, one per entry.
Express the result in µM but write the number alone.

>  <MOLECULE>
O=C(c1ccc(-c2ccc(Cl)cc2)cc1)[C@H]1CCN(C(=O)Nc2ccccc2)[C@@H]1C(=O)O [Example 173]

>  <UNITS_TEXT>
µM

>  <IC50>
0.814

$$$$
>  <MOLECULE>
O=C(O)[C@H]1[C@H](CSc2nc3ccccc3o2)CC[C@@H]1C(=O)c1ccc(-c2ccc(Cl)cc2)cc1 (relative stereo) [Example 384]

>  <UNITS_TEXT>
µM

>  <IC50>
0.167

$$$$
>  <MOLECULE>
O=C(CC(CCc1ccccc1C(=O)O)C(=O)O)c1ccc(-c2ccc(Cl)cc2)cc1 (stereo not drawn) [Example 143]

>  <UNITS_TEXT>
µM

>  <IC50>
1.4

$$$$
>  <MOLECULE>
O=C(CC(CCN1C(=O)[C@H]2CC=CC[C@H]2C1=O)C(=O)O)c1ccc(-c2ccc(Cl)cc2)cc1 (relative stereo) [Example 413]

>  <UNITS_TEXT>
µM

>  <IC50>
0.109

$$$$
>  <MOLECULE>
CCOc1ccc(-c2ccc(C(=O)CC(CCc3ccccc3)C(=O)O)cc2)cc1 (stereo not drawn) [Example 156]

>  <UNITS_TEXT>
µM

>  <IC50>
0.145

$$$$
>  <MOLECULE>
CCN(CC)C(=O)c1cccc(CCC(CC(=O)c2ccc(-c3ccc(OCc4ccccc4)cc3)cc2)C(=O)O)c1 (stereo not drawn) [Example 165]

>  <UNITS_TEXT>
µM

>  <IC50>
0.055

$$$$

Request: Given the entry O=C(CC(CCN1C(=O)c2ccc(O)cc2C1=O)C(=O)O)c1ccc(-c2ccc(Cl)cc2)cc1 (stereo not drawn) [Example 420] , report its measured IC50.
Response: 0.0017

Request: Given the entry O=C(CC(CCNC(=O)c1ccccc1C(=O)O)C(=O)O)c1ccc(-c2ccc(Cl)cc2)cc1 (stereo not drawn) [Example 279] , report its measured IC50.
Response: 0.286

Request: Given the entry CCCCCOc1ccc(-c2ccc(C(=O)CC(CCCc3ccccc3)C(=O)O)cc2)cc1 (stereo not drawn) [Example 85] , report its measured IC50.
Response: 0.767

Request: Given the entry CC(=O)Oc1ccc2c(c1)C(=O)N(CCC(CC(=O)c1ccc(-c3ccc(Cl)cc3)cc1)C(=O)O)C2=O (stereo not drawn) [Example 425] , report its measured IC50.
Response: 0.0012

Request: Given the entry O=C(O)[C@H]1[C@H](CSc2cccs2)CC[C@@H]1C(=O)c1ccc(-c2ccc(Cl)cc2)cc1 (relative stereo) [Example 369] , report its measured IC50.
Response: 0.139

Request: Given the entry O=C(NC[C@@H]1CC[C@H](C(=O)c2ccc(-c3ccc(Cl)cc3)cc2)[C@H]1C(=O)O)c1ccccc1 (relative stereo) [Example 370] , report its measured IC50.
Response: 0.026

Request: Given the entry O=C(O)[C@H]1[C@H](CSc2ccccc2)CC[C@@H]1C(=O)c1ccc(-c2ccc(Cl)cc2)cc1 (relative stereo) [Example 373] , report its measured IC50.
Response: 0.113

Request: Given the entry O=C(O)[C@@H]1[C@@H](CN2C(=O)c3ccccc3C2=O)OC[C@H]1C(=O)c1ccc(-c2ccc(Cl)cc2)cc1 (relative stereo) [Example 403] , report its measured IC50.
Response: 0.0057

Request: Given the entry CCOc1ccc(-c2ccc(C(=O)CC(CCN3C(=O)c4ccccc4C3=O)C(=O)O)cc2)cc1 (stereo not drawn) [Example 273] , report its measured IC50.
Response: 0.00125
